target: 11β-hsd-1 enzyme (Homo sapiens, UniProt P28845); test: 11β-hsd-1 enzyme assay, percentage of inhibition (3H-cortisone to cortisol, radio-HPLC); assay type: biochemical; conditions: compound at 0.1 uM; read-out: % inh @ 0.1 uM
Sequence (P28845 whole entry, species assumed): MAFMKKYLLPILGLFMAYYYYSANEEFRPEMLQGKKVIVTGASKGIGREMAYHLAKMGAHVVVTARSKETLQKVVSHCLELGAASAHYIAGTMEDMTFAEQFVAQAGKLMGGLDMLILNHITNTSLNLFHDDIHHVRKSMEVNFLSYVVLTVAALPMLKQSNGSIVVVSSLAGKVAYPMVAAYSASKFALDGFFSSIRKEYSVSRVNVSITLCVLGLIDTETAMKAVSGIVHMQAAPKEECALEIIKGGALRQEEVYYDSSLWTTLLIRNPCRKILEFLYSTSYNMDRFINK
Observation type: inhibition at 0.1 µM (%)

[[record]]
compound = "O=S(=O)(Nc1ccc2ccccc2n1)N1CCc2conc2CC1 [Example 315]"
measured = 86.1

[[record]]
compound = "Cc1cccc(NS(=O)(=O)c2ccc(-c3ccc(C#N)cc3)cc2C)n1 [Example 277]"
measured = 100

[[record]]
compound = "Cc1cccc(NS(=O)(=O)c2ccc(-c3cccc(C)c3C)cc2C)n1 [Example 197]"
measured = 89

[[record]]
compound = "Cc1cccc(NS(=O)(=O)c2ccc(-c3cc(F)ccc3F)cc2C)n1 [Example 202]"
measured = 88

[[record]]
compound = "Cc1cccc(NS(=O)(=O)c2ccc(-c3cc(Cl)cc(Cl)c3)c(C)c2)n1 [Example 222]"
measured = 90


---

molecular target: 11β-hsd-1 enzyme (Homo sapiens, UniProt P28845); test: 11β-hsd-1 enzyme assay, percentage of inhibition (3H-cortisone to cortisol, radio-HPLC); type: biochemical; settings: 0.1 uM; read-out: % inh @ 0.1 uM
Observation type: inhibition at 0.1 µM (%)

[[record]]
smiles_entry = "Cc1cccc(NS(=O)(=O)c2ccc(-c3ccc(Cl)c(Cl)c3)cc2)n1"
tgt = "11β-hsd-1 enzyme (Homo sapiens, UniProt P28845)"
readout_unit = "%"
measured = 91


[1] CCc1cccc(NS(=O)(=O)c2sc(-c3ccccc3)nc2C)n1
[2] COc1ccc(-c2ccc(S(=O)(=O)Nc3cccc(C)n3)cc2)c(OC)c1
Query block: Parameter check: reported inhibition at 0.1 µM is higher for which label, 1 or 2 ? Write the label of whichever entry you select.
Result block: 1
(1: 89.6%, 2: 49.1%)

---

target: 11β-hsd-1 enzyme (Homo sapiens); test: 11β-hsd-1 enzyme assay, percentage of inhibition (3H-cortisone to cortisol, radio-HPLC); type: biochemical; conditions: 0.1 uM; read-out: % inh @ 0.1 uM
Observation type: inhibition at 0.1 µM (%)

Solved cases below.
[[record]]
smiles_entry = "Nc1cccc(NS(=O)(=O)c2ccc(-c3ccc(C(F)(F)F)cc3)cc2)n1"
tgt = "11β-hsd-1 enzyme (Homo sapiens)"
observation_type = "inhibition at 0.1 µM"
readout_unit = "%"
measured = 100

[[record]]
smiles_entry = "CCN(CC)C(=O)Cc1cc(C)cc(NS(=O)(=O)c2cccc(Cl)c2C)n1"
tgt = "11β-hsd-1 enzyme (Homo sapiens)"
observation_type = "inhibition at 0.1 µM"
readout_unit = "%"
measured = 23.6

[[record]]
smiles_entry = "Cc1cc(C)nc(NS(=O)(=O)c2sc(-c3ccccc3)nc2C)c1"
tgt = "11β-hsd-1 enzyme (Homo sapiens)"
observation_type = "inhibition at 0.1 µM"
readout_unit = "%"
measured = 31.7

[[record]]
smiles_entry = "Cc1cccc(NS(=O)(=O)c2cnn(-c3ccccc3)c2C)n1"
tgt = "11β-hsd-1 enzyme (Homo sapiens)"
observation_type = "inhibition at 0.1 µM"
readout_unit = "%"
measured = 15

[[record]]
smiles_entry = "Cc1cccc(NS(=O)(=O)c2ccc(-c3cccc(Cl)c3)cc2C)n1"
tgt = "11β-hsd-1 enzyme (Homo sapiens)"
observation_type = "inhibition at 0.1 µM"
readout_unit = "%"
measured = 97


[1] Cc1c(Cl)cccc1S(=O)(=O)Nc1cccc(CC(=O)N(C)C)n1
[2] N#Cc1ccc(-c2ccc(S(=O)(=O)Nc3ccc4ccccc4n3)cc2)cc1
Query block: Between 1 and 2 , whose recorded inhibition at 0.1 µM is greater? # respond with the chosen item's label
Result block: 2

[1] Cc1ccc(NS(=O)(=O)c2ccc(-c3ccccc3)cc2)nc1
[2] CCOc1ccc(-c2ccc(S(=O)(=O)Nc3cccc(C)n3)c(C)c2)cc1
Query block: Decide: 1 or 2 , by lowest recorded inhibition at 0.1 µM. // caller expects the label of the chosen entry
Result block: 1
(1: 33.8%, 2: 81%)

[A] CCN(CC)C(=O)Cc1cccc(NS(=O)(=O)c2ccc(C(C)C)cc2)n1
[B] Cc1cccc(NS(=O)(=O)c2ccc(-c3cccc(C#N)c3)cc2C)n1
Query block: From the items above, decide which of A and B has the lower inhibition at 0.1 µM reading. # answer = label of selected item
Result block: A
(A: 42.8%, B: 85%)

[P] Cc1c(Cl)cccc1S(=O)(=O)Nc1cccc(CO)n1
[Q] Cc1cccc(NS(=O)(=O)c2ccc(-c3ccc(F)cc3F)cc2C)n1
Query block: # min-compare on inhibition at 0.1 µM between P and Q Select an item and report its label.
Result block: P

---

biological target: 11β-hsd-1 enzyme (Homo sapiens, UniProt P28845); assay: 11β-hsd-1 enzyme assay, percentage of inhibition (3H-cortisone to cortisol, radio-HPLC); type: biochemical; conditions: 0.1 uM; read-out: % inh @ 0.1 uM
Observation type: inhibition at 0.1 µM (%)

[[record]]
smiles_entry = "Cc1cccc(NS(=O)(=O)c2ccc(-c3ccc(F)cc3)cc2)n1"
observation_type = "inhibition at 0.1 µM"
readout_unit = "%"
measured = 86.8

[[record]]
smiles_entry = "Nc1cccc(NS(=O)(=O)c2ccc(-c3ccccc3)cc2)n1"
observation_type = "inhibition at 0.1 µM"
readout_unit = "%"
measured = 98

[[record]]
smiles_entry = "CCN(CC)C(=O)Cc1cccc(NS(=O)(=O)c2ccc(C)cc2)n1"
observation_type = "inhibition at 0.1 µM"
readout_unit = "%"
measured = 4.9

[[record]]
smiles_entry = "Cc1cccc(NS(=O)(=O)c2ccc(-c3cc(F)cc(F)c3)cc2C)n1"
observation_type = "inhibition at 0.1 µM"
readout_unit = "%"
measured = 95

[[record]]
smiles_entry = "Cc1cccc(NS(=O)(=O)c2ccc(-c3ccccc3)cc2)n1"
observation_type = "inhibition at 0.1 µM"
readout_unit = "%"
measured = 52

[[record]]
smiles_entry = "Cc1ccc(-c2ccc(S(=O)(=O)Nc3cccc(C)n3)c(C)c2)cc1"
observation_type = "inhibition at 0.1 µM"
readout_unit = "%"
measured = 93


[a] Cc1cccc(NS(=O)(=O)c2ccc(-c3cccc(C(F)(F)F)c3)cc2)n1
[b] COc1cccc(NS(=O)(=O)c2ccc(-c3ccc(C#N)cc3)cc2)n1
Query block: Compare reported inhibition at 0.1 µM values for a and b . Which is lower? # respond with the chosen item's label
Result block: b
(b: 8.2%, a: 78.9%)

[1] COc1ccccc1-c1ccc(S(=O)(=O)Nc2cccc(C)n2)cc1
[2] C=CCN(C)C(=O)Cc1cccc(NS(=O)(=O)c2cccc(Cl)c2C)n1
Query block: Looking at 1 and 2 , which one comes out lower in inhibition at 0.1 µM terms? Respond using the label that marks the chosen record.
Result block: 2
(2: 10.9%, 1: 71.7%)

[a] Cc1cccc(NS(=O)(=O)c2ccc(-c3ccc(Cl)c(Cl)c3)cc2C)n1
[b] Cc1c(Cl)cccc1S(=O)(=O)Nc1cccc(CC(=O)N2CCC(F)(F)CC2)n1
[c] CCOc1ccccc1-c1ccc(S(=O)(=O)Nc2cccc(C)n2)c(C)c1
[d] Cc1ccnc(NS(=O)(=O)c2ccc(-c3ccccc3)cc2)n1
Query block: Rank the items in ascending order with respect to inhibition at 0.1 µM. Put the labels in the requested order and write them down.
Result block: d, b, c, a

[I] Cc1cccc(NS(=O)(=O)c2ccc(C(C)C)cc2)n1
[II] N#Cc1ccc(-c2ccc(S(=O)(=O)Nc3cc(O)c4ccccc4n3)cc2)cc1
Query block: Quick one: lower inhibition at 0.1 µM, I or II ? Answer format: the label of the selected item.
Result block: II

---

biological target: 11β-hsd-1 enzyme (Homo sapiens, UniProt P28845); assay: 11β-hsd-1 enzyme assay, Kiapp determination (3H-cortisone to cortisol, radio-HPLC); format: biochemical; settings: read-out: Ki app
Observation type: Ki (nM)

Illustrative cases are given below, each with its answer.
[[record]]
compound = "Cc1cccc(NS(=O)(=O)c2ccc(-c3ccccc3Cl)cc2C)n1 [Example 164]"
observation_type = "Ki"
readout_unit = "nM"
measured = 13

[[record]]
compound = "Cc1c(Cl)cccc1S(=O)(=O)Nc1cccc(N)n1 [Example 41]"
observation_type = "Ki"
readout_unit = "nM"
measured = 17


[A] COc1cccc(-c2ccc(S(=O)(=O)Nc3cccc(C)n3)cc2)c1 [Example 160]
[B] Nc1cccc(NS(=O)(=O)c2ccc(-c3ccccc3)cc2)n1 [Example 40]
Query block: Lab note: check whether A or B shows the higher recorded Ki. // return label of chosen record
Result block: A

[I] CCc1cccc(NS(=O)(=O)c2sc3ccc(Cl)cc3c2C)n1 [Example 69]
[II] Cc1cccc(NS(=O)(=O)c2ccc(C(F)(F)F)cc2)n1 [Example 35]
[III] N#Cc1ccc(-c2ccc(S(=O)(=O)Nc3ccc4occc4n3)cc2)cc1 [Example 86]
[IV] Cc1cccc(NS(=O)(=O)c2ccc(-c3cccc(F)c3)cc2C)n1 [Example 173]
Query block: Output the entries ranked by Ki from maximum down to minimum. Enter labels, ranked according to the request.
Result block: II, III, IV, I
(II: 108 nM, III: 14.3 nM, IV: 9.6 nM, I: 1.1 nM)

[a] O=S(=O)(Nc1ccc2ccccc2n1)c1ccc(-c2ccc(F)cc2)cc1 [Example 48]
[b] Nc1cccc(NS(=O)(=O)c2ccc(-c3ccc(F)cc3)cc2)n1 [Example 43]
Query block: Returns: the argument ( a or b ) having the larger Ki. Use the label to indicate which entry you chose.
Result block: a

[P] Cc1ccc(-c2ccc(S(=O)(=O)Nc3cccc(C)n3)c(C)c2)cc1 [Example 171]
[Q] Cc1cccc(NS(=O)(=O)c2ccc(-c3ccccc3)cc2C)n1 [Example 166]
Query block: Of P and Q , which carries the smaller reported Ki figure? Lab note: record the label of whichever item you select.
Result block: P
